SYSTEM: T1, mouse vascular endothelial growth factor receptor-2 Fc chimera (Flk-1-Fc) (mouse, UniProt P35918 20-762)
T1 construct: Bought from R&D Systems; also called mouse VEGFR-2; not shown: Fc part of the purchased chimera, not specified
T1 sequence (P35918 20-762, change not shown): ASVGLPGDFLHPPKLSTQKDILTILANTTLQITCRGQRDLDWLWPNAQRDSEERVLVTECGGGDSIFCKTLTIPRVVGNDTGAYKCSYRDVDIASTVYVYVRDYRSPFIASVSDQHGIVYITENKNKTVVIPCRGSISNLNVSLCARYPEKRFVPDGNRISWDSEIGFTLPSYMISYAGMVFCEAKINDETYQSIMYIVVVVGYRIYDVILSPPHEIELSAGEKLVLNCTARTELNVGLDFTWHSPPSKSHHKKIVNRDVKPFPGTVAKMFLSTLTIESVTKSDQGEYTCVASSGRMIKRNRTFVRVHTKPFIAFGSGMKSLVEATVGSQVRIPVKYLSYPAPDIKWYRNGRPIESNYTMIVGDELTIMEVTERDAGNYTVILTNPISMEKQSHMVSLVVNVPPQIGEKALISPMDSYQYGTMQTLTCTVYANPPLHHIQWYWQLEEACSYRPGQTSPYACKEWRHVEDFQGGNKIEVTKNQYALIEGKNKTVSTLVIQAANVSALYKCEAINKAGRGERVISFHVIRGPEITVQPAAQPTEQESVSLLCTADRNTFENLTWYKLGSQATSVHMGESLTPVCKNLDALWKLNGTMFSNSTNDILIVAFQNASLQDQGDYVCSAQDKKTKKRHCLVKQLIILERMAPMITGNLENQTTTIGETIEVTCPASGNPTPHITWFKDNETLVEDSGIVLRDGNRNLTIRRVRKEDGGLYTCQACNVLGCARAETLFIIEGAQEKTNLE
ASSAY_COMMENT: radioactive equilibrium binding assay, 1 nM Flk-1-Fc, % of input bound
Mark criterion not met for Binding to 1 nM Flk-1, % values under 20%, and criterion met for everything at or above.

Q: Hi team, for EGE7 (designed binder, 10Fn3 clone, Del 1-8) EVVAATPTSLLISWRHPHFPTRYYRITYGETGGNSPVQEFTVPLQPPTATISGLKPGVDYTITGYAVTLERNDRVLLTPISINYRT , is the recorded Binding to 1 nM Flk-1, % at or above 20%?
Ans: criterion met

Q: API: above_or_equal(metric=Binding to 1 nM Flk-1, %, cutoff=20%) for item D5 (designed binder, 10Fn3 clone, Del 1-8) EVVAATPTSLLISWRHPHFPTRYYRITYGETGGNSPVQEFTVPLQPPTATISGLKPGVDYTITGYAVTVERNGRTLMMPISINYRT
Ans: criterion met

Q: Could you tell me if the measured Binding to 1 nM Flk-1, % of C9 (designed binder, 10Fn3 clone, Del 1-8) EVVAATPTSLLISWRHPHFPTRYYRITYGETGGNSPVQEFTVPLQPPTATISGLKPGVDYTITGYAVTVERNGLVLMTPISINYRT reaches 20% or more?
Ans: criterion not met

Q: Please indicate if the recorded Binding to 1 nM Flk-1, % for C8 (designed binder, 10Fn3 clone, Del 1-8) EVVAATPTSLLISWRHPHFPTRYYRITYGETGGNSPVQEFTVPLQPPTATISGLKPGVDYTITGYAVTLERNGRVLITPISINYRT meets or exceeds 20%.
Ans: criterion met

Q: Quick check, Binding to 1 nM Flk-1, % >= 20%? F9 (designed binder, 10Fn3 clone, Del 1-8) EVVAATPTSLLISWRHPHFPTRYYRITYGETGGNSPVQEFTVPLQPPTATISGLKPGVDYTITGYAVTVEPNGRVLNTPISINYRT
Ans: criterion met

Q: Tell me whether Binding to 1 nM Flk-1, % is at least 20% here: EGE1 (designed binder, 10Fn3 clone, Del 1-8) EVVAATPTSLLISWRHPHFPTRYYRITYGETGGNSPVQEFTVPLQPPTATISGLKPGVDYTITGYAVTLERNGRKLMTPISINYRT
Ans: criterion met

Q: Hello, I need to know if E20 (designed binder, 10Fn3 clone, Del 1-8) EVVAATPTSLLISWRHPHFPTRYYRITYGETGGNSPVQEFTVPLQPPTATISGLKPGVDYTITGYAVTVERNGQVLYTPISINYRT has measured Binding to 1 nM Flk-1, % not below 20%. Thanks!
Ans: criterion not met

Q: In plain terms: is recorded Binding to 1 nM Flk-1, % at least 20% for EGE3 (designed binder, 10Fn3 clone, Del 1-8) EVVAATPTSLLISWRHPHFPTRYYRITYGETGGNSPVQEFTVPLQPPTATISGLKPGVDYTITGYAVTVERNGRQLYTPISINYRT ?
Ans: criterion met

Q: Quick check: does E5 (designed binder, 10Fn3 clone, Del 1-8) EVVAATPTSLLISWRHPHFPTRYYRITYGETGGNSPVQEFTVPLQPPTATISGLKPGVDYTITGYAVTDGQNGRLLNVPISINYRT have Binding to 1 nM Flk-1, % greater than or equal to 20%?
Ans: criterion not met

Q: Could you tell me if the measured Binding to 1 nM Flk-1, % of A11 (designed binder, 10Fn3 clone, Del 1-8) EVVAATPTSLLISWRHPHFPTRYYRITYGETGGNSPVQEFTVPLQPPTATISGLKPGVDYTITGYAVTLEWNNRVLMTPISINYRT reaches 20% or more?
Ans: criterion not met

Q: Is Binding to 1 nM Flk-1, % at least 20%? Consider E28 (designed binder, 10Fn3 clone, Del 1-8) EVVAATPTSLLISWRHPHFPTRYYRITYGETGGNSPVQEFTVPLQPPTATISGLKPGVDYTITGYAVTLERNGRELMVPISINYRT
Ans: criterion met

// provenance: patent US20140179896A1
